# PROCEDURE_SUMMARY: in vitro
# ASSAY_CONTEXT: human
EXPERIMENTAL_ENDPOINT: cytotoxicity at 41 h, 10 µM (%)
Numbers only, in %.

{"COMPOUND": "CC(C)=CCc1c2c(c3occ(-c4ccc(O)c(O)c4)c(=O)c3c1O)C=CC(C)(C)O2 [POMIFERIN]", "cytotoxicity at 41 h, 10 µM [%]": 98.8}
{"COMPOUND": "CC(=O)Oc1ccc(O)cc1 [4-ACETOXYPHENOL]", "cytotoxicity at 41 h, 10 µM [%]": 13.4}
{"COMPOUND": "O=C(O)c1cccnc1 [NIACIN]", "cytotoxicity at 41 h, 10 µM [%]": 5.3}
{"COMPOUND": "CC(=O)O[C@H]1C(=O)[C@@]2(C)[C@H]([C@H](OC(=O)c3ccccc3)[C@]3(O)C[C@H](OC(=O)[C@H](O)[C@@H](NC(=O)c4ccccc4)c4ccccc4)C(C)=C1C3(C)C)[C@]1(OC(C)=O)CO[C@@H]1C[C@@H]2O [PACLITAXEL]", "cytotoxicity at 41 h, 10 µM [%]": 36.1}
{"COMPOUND": "CO[C@H]1C[C@H](O[C@H]2[C@H](C)[C@@H](O[C@@H]3O[C@H](C)C[C@H](N(C)C)[C@H]3O)[C@@H](C)C[C@@]3(CO3)C(=O)[C@H](C)[C@@H](O)[C@@H](C)[C@@H](C)OC(=O)[C@@H]2C)O[C@@H](C)[C@@H]1O [OLEANDOMYCIN PHOSPHATE]", "cytotoxicity at 41 h, 10 µM [%]": 87.6}

Could I get cytotoxicity at 41 h, 10 µM for every one of these entries?
1. COC(=O)CC[C@@H](C)[C@H]1CC[C@H]2[C@@H]3[C@H](O)C[C@@H]4C[C@H](O)CC[C@]4(C)[C@H]3C[C@H](O)[C@]12C [CHOLIC ACID, METHYL ESTER]
2. Oc1cc(O)c2c(c1)O[C@H](c1ccc(O)c(O)c1)[C@@H](O)C2 [CIANIDANOL]

-7.7
-14.9

Could I get cytotoxicity at 41 h, 10 µM for every one of these entries?
1. COc1ccc(-c2cc(=O)c3c(O)c(OC)c(OC)c(OC)c3o2)cc1 [GARDENIN B]
2. C[C@@H]1O[C@@H](O[C@H]2[C@H](Oc3cc(O)c4c(c3)O[C@H](c3ccc(O)cc3)CC4=O)O[C@H](CO)[C@@H](O)[C@@H]2O)[C@H](O)[C@H](O)[C@H]1O [NARINGIN]
3. O=C(O)/C=C/C=C/c1ccccc1 [JUAREZIC ACID]
4. O=c1c(O)cc([C@H]2Oc3cc(O)cc(O)c3C[C@H]2O)cc2c([C@H]3Oc4cc(O)cc(O)c4C[C@H]3O)cc(O)c(O)c12 [THEAFLAVIN]
5. O=c1c(O)cccc2cc(O)c(O)c(O)c12 [PURPUROGALLIN]

16
10.4
-48.4
7.6
-0.7

Could I get cytotoxicity at 41 h, 10 µM for every one of these entries?
1. CC1=C(/C=C/C(C)=C/C=C/C(C)=C/C(=O)O)C(C)(C)CCC1 [TRETINOIN]
2. O=C(O)/C=C(\CC(=O)O)C(=O)O [ACONITIC ACID]
3. Nc1ncnc2c1ncn2[C@H]1C[C@H](O)[C@@H](CO)O1 [DEOXYADENOSINE]
4. C=CCSCC=C [DIALLYL SULFIDE]
5. Cc1[nH]c2ccccc2c1CN(C)C [2-METHYL GRAMINE]

[-21.5, -0.7, -27.3, -0.8, -7.5]
